Target: Hexose transporter 1 (Plasmodium falciparum)
Experiment: ST_JUDE_LEISH: Cytotoxicity at 2uM final concentration against transgenic Leishmania Mexicana promastigotes LmPfHT that are glucose transport deficient and complemented with the Plasmodium falciparum hexose transporter. Activity is measured by DNA content using SYBR green in vitro
Type: functional
# maps each entry to its inhibition
MEASURED PARAMETER: inhibition (%)

> print(dat)
                                    compound  measured.parameter  reported.value
 1  O=C(Nc1ccccc1F)N(CCCn1ccnc1)Cc1csc(-c2ccc(CNCc3ccccc3)cc2)n1          inhibition            0.06
 2  CS(=O)(=O)Nc1cccc(-c2cnc3[nH]cc(-c4cc(N)cc(C(=O)O)c4)c3c2)c1          inhibition            1.94
 3  O=C1OC2(CCN(C(=O)c3ccc(-n4cnnn4)cc3)CC2)CN1Cc1ccc(Cl)c(Cl)c1          inhibition            3.05
 4  COc1ccc(-c2ccc(NC(=O)c3ccc(C#N)cc3)cc2)cc1CN1CCN(C)CC1          inhibition             1.9
 5  O=C(/C=C/c1cccc(Br)c1)NCCCCCN1CCC(c2c[nH]c3ccccc23)CC1          inhibition             2.1
 6  O=C(COc1ccc(F)cc1)NC1CCN(c2ccnc3cc(Cl)ccc23)C1 (stereo not given)          inhibition            6.11
 7  CCCCCCn1c(Sc2ccc(C#N)c([N+](=O)[O-])c2)nnc1-c1ccc(N(C)C)cc1          inhibition            16.1
 8  CNCCNCc1ccc(-c2ccc(-c3nc4cccc(C)c4[nH]3)cc2)cc1          inhibition            4.65
 9  O=C(Nc1cccnc1)c1cc(-c2cc(Cl)ccc2O)n[nH]1          inhibition            2.47
10     CC(CO)(CO)NCc1cc2ccc3ccsc3c2c2ccccc12          inhibition            71.3
11  O=S(=O)(Nc1cc2c(cc1O)CCN(C1CCC1)CC2)c1ccc(-c2ccc(F)cc2)cc1          inhibition            8.27
12  COc1ccc(N2CCN(CCCOc3ccc(NC(=O)c4cc(Cl)cc(Cl)c4)cc3)CC2)c(OC)c1          inhibition            5.97
13  CCNc1cc(C)nc(Nc2ccc(NC(=O)c3cccs3)cc2)n1          inhibition             5.9
14                     O=C1COc2ccc3ccccc3c21          inhibition            0.78
15  CSc1ccc(CN2CCC(NC(=O)c3ccc(-c4cccc(C(F)(F)F)c4)s3)CC2)cc1          inhibition            0.48
16  Cc1[nH]cnc1CSCCN/C(=N\C#N)NCCCCCCCCN/C(=N/C#N)NCCSCc1nc[nH]c1C          inhibition            2.15
17  COCc1cccc(-c2cc(-c3ccc(S(C)(=O)=O)cc3)cnc2N)c1          inhibition           -0.46
18  CCc1c[nH]c2c(N3CCCC3=O)cc(C(=O)N[C@@H](Cc3ccccc3)[C@H](O)CNC(C)(C)c3cccc(C(F)(F)F)c3)cc12          inhibition           -2.43
19  COc1cccc2c(N/N=C/c3cccc([N+](=O)[O-])c3)ccnc12          inhibition            10.8
20  C=CCOC(=O)N1CCC(CNCc2ccc(-c3ccc(-c4nc5cc(C(F)(F)F)ccc5[nH]4)cc3)cc2)C1 (stereo not given)          inhibition           -0.38
